Target: EP1 receptor (Homo sapiens, UniProt P34995, A71T/L230H)
Sequence (P34995 whole entry A71T/L230H): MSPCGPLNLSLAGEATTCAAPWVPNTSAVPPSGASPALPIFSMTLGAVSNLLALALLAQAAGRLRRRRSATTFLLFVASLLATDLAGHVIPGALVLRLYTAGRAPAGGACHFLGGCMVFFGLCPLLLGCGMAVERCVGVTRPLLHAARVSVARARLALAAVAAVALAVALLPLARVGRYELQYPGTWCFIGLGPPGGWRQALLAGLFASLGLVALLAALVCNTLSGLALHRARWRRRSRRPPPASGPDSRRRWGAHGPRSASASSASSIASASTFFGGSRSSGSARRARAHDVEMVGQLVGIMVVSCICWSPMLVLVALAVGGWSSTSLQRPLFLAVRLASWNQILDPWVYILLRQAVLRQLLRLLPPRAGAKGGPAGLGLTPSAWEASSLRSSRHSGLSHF
Experiment: [3H]PGE2 binding assay with membranes of pcDNA-EP1-transfected COS-M6 cells
Settings: 0.5 nM [3H]PGE2, FIG. 3B; read-out: IC50 for competition for [3H]PGE2 specific binding
pIC50: −log10 of the molar value.

[
  {
    "compound": "CC(=O)NNC(=O)N1Cc2ccccc2Oc2ccc(Cl)cc21 [SC 19220]",
    "pIC50": "~5.17"
  },
  {
    "compound": "CCCC1([C@H](O)C/C=C/[C@H]2[C@H](O)CC(=O)[C@@H]2CCCCCCC(=O)OC)CCC1 [butaprost]",
    "pIC50": 4.30
  },
  {
    "compound": "CC(C)Oc1ccc2c(=O)c3cc(C(=O)O)ccc3oc2c1 [AH 6809]",
    "pIC50": "~6.30"
  }
]
